System: Staphylococcus aureus
measurement notes: Antibacterial activity against Staphylococcus aureus 3527 by CLSI method
Format: functional
# MIC annotations
Report the value in µg/mL with no unit label.

>>> print(df.to_string())
                                   molecule  measured_number
0  COc1ccc2ncc(F)c(C(O)C[C@H]3OC[C@H](NCc4cc5c(cn4)OCCO5)CO3)c2c1 (mixture of isomers)                1

Notebook: `COc1ccc2ccc(F)c(C[C@H](O)[C@H]3OC[C@H](NCc4cc5c(cn4)OCCO5)CO3)c2n1` , MIC read as 0.125

`COc1ccc2ccc(F)c(C[C@H](O)[C@H]3OC[C@H](NCc4ccc5c(n4)NC(=O)CO5)CO3)c2n1` yielded MIC of 0.25

---

This section presents molecules with their documented Papp A→B values.
measurement notes: Permeability of the compound from apical to basolateral side in human Caco-2 cells
Type: ADME, cell-based
stated conditions: read-out: permeability

In [3]: df
Out[3]:
                                   molecule  endpoint           result
0  COc1ccc2ncc(F)c(C[C@H](O)[C@H]3OC[C@H](NCc4cc5c(nn4)OCCS5)CO3)c2n1  Papp A→B  5.68 ×10⁻⁶ cm/s

GET /value?item= COc1ccc2ncc(F)c(C(O)C[C@H]3OC[C@H](NCc4cc5c(nn4)OCCS5)CO3)c2n1 (mixture of isomers) &field=Papp A→B returns 7.85 ×10⁻⁶ cm/s

---

Tested on: Streptococcus pneumoniae
measurement notes: Antibacterial activity against Streptococcus pneumoniae by CLSI method
Type: functional
Quick reference for MIC50 among some molecules
Use µg/mL as the unit, but write only the number.

Answered cases to consult:
>>> print(df.to_string())
                                   molecule  endpoint  result_unit  measured_number
0  COc1ccc2ncc(F)c(C[C@H](O)[C@H]3OC[C@H](NCc4ccc5c(c4)OCCO5)CO3)c2n1     MIC50        µg/mL              0.5
1  COc1ccc2ncc(F)c(C[C@H](O)[C@H]3OC[C@H](NCc4ccc(Cl)c(Cl)c4)CO3)c2n1     MIC50        µg/mL                4

Lab note: `COc1ccc2ncc(F)c(C[C@H](O)[C@H]3OC[C@H](NCc4ccc5c(c4)OCCO5)CO3)c2c1` gave MIC50 of 1

Looking up `COc1ccc2ncc(F)c(C[C@H](O)[C@H]3OC[C@H](NCc4cc5c(cn4)OCCO5)CO3)c2c1` , I see its MIC50 listed as 2

MIC50 reading for `COc1ccc2ncc(F)c(C[C@H](O)[C@H]3OC[C@H](NCc4cc5c(cn4)OCCO5)CO3)c2n1` : 0.5

Recorded MIC50 (molecule COc1ccc2ncc(F)c(C(O)C[C@H]3OC[C@H](NCc4ccc5c(c4)OCCO5)CO3)c2c1 (mixture of isomers) ): 1

// `COc1ccc2ncc(F)c(C[C@H](O)[C@H]3OC[C@H](NCc4cc5c(nn4)OCCS5)CO3)c2c1` : MIC50 value = 1

---

measurement notes: Plasma protein binding in dog
Assay type: ADME, cell-free, Canis lupus familiaris
stated conditions: read-out: PPB (converted)
endpoint: fraction unbound
Write the value as a bare number.

The recorded fraction unbound for COc1ccc2ncc(F)c(C(O)C[C@H]3OC[C@H](NCc4ccc5c(c4)OCCO5)CO3)c2c1 (mixture of isomers) is 0.11

---

Test system: Staphylococcus aureus
measurement notes: Antibacterial activity against Staphylococcus aureus 3527 by CLSI method
Type: functional
# reported MIC; entries follow

>>> df
                                   compound       result
0  COc1ccc2ncc(F)c(C(O)C[C@H]3OC[C@H](NCc4ccc5c(n4)NC(=O)CS5)CO3)c2c1 (mixture of isomers)  ≤ 0.25 mg/L
1  COc1ccc2ncc(F)c(C(O)C[C@H]3OC[C@H](NCc4ccc5c(n4)NC(=O)CO5)CO3)c2c1 (mixture of isomers)   ≤ 0.5 mg/L

The recorded MIC for entry COc1ccc2ncc(F)c(C(O)C[C@H]3OC[C@H](NCc4ccc(Cl)c(Cl)c4)CO3)c2c1 (mixture of isomers) equals ≤ 0.25 mg/L

---

Listed compounds paired with reported IC50
target entity: DNA gyrase (Staphylococcus aureus, UniProt P0A0K8+P20831)
measurement notes: Inhibition of Staphylococcus aureus Gyrase supercoiling activity assessed as reduction in supercoiling pBR322 DNA by measuring relaxation by bromophenol blue staining based TAE gel method
Enter your answer as a number in nM; do not include the unit.

Recorded results for 5 compounds are shown here.
>>> print(df.to_string())
                                   compound  endpoint  result_unit  measured_number
0  COc1ccc2ncc(F)c(C[C@H](O)[C@H]3OC[C@H](NCc4cc5c(cn4)OCCO5)CO3)c2n1      IC50           nM               39
1  COc1ccc2ncc(F)c(C[C@H](O)[C@H]3OC[C@H](NCc4ccc(C)cc4)CO3)c2c1      IC50           nM               14
2  COc1ccc2ncc(F)c(C(O)C[C@H]3OC[C@H](NCc4ccc(C)cc4)CO3)c2c1 (mixture of isomers)      IC50           nM              110
3  COc1ccc2ccc(F)c(C[C@H](O)[C@H]3OC[C@H](NCc4cc5c(nn4)OCCS5)CO3)c2n1      IC50           nM              120
4  COc1ccc2ncc(F)c(C[C@H](O)[C@H]3OC[C@H](NCc4cc5c(cn4)OCS5)CO3)c2n1      IC50           nM               99

# compound COc1ccc2ncc(F)c(C(O)C[C@H]3OC[C@H](NCc4ccc5c(c4)OCCO5)CO3)c2n1 (mixture of isomers) ; its IC50 = 22

Measured IC50 of `COc1ccc2ncc(F)c(C[C@H](O)[C@H]3OC[C@H](NCc4ccc5c(c4)OCCO5)CO3)c2n1` : 60

Looking up `COc1ccc2ncc(F)c(C[C@H](O)[C@H]3OC[C@H](NCc4ccc(Cl)c(Cl)c4)CO3)c2c1` , I found its IC50 recorded as 56

Form: compound = COc1ccc2ncc(F)c(C(O)C[C@H]3OC[C@H](NCc4cc5c(cn4)OCCO5)CO3)c2n1 (mixture of isomers) ; IC50 = 160

Per the record, COc1ccc2ncc(F)c(C(O)C[C@H]3OC[C@H](NCc4ccc(Cl)c(Cl)c4)CO3)c2n1 (mixture of isomers) has IC50 of 220

# IC50 of `COc1ccc2ncc(F)c(C[C@H](O)[C@H]3OC[C@H](NCc4cc5c(cn4)OCO5)CO3)c2n1` = 850

The measured IC50 associated with `COc1ccc2ncc(F)c(C[C@H](O)[C@H]3OC[C@H](NCc4cc5c(cn4)OCCO5)CO3)c2c1` reads 42

Looking up `COc1ccc2ncc(F)c(C[C@H](O)[C@H]3OC[C@H](NCc4cc5c(nn4)OCCS5)CO3)c2c1` , I found its IC50 recorded as 56

---

target entity: Topoisomerase IV (Staphylococcus aureus, UniProt P0C1S7+P0C1U9)
measurement notes: Inhibition of Staphylococcus aureus topoisomerase IV decatenation activity using kDNA as substrate by ethidium bromide/bromophenol blue staining based agarose gel electrophoresis analysis
Friendly reminder: IC50 below 3 µM is Met, at or above is Not met.

Worked set:
                                   compound  answer_label
0  COc1ccc2ncc(F)c(C[C@H](O)[C@H]3OC[C@H](NCc4ccc(C)cc4)CO3)c2c1       Not met
1  COc1ccc2ncc(F)c(C[C@H](O)[C@H]3OC[C@H](NCc4cc5c(nn4)OCCS5)CO3)c2c1       Not met
2  COc1ccc2ncc(F)c(C[C@H](O)[C@H]3OC[C@H](NCc4cc5c(cn4)OCO5)CO3)c2n1       Not met
3  COc1ccc2ncc(F)c(C(O)C[C@H]3OC[C@H](NCc4ccc5c(c4)OCCO5)CO3)c2n1 (mixture of isomers)       Not met

IC50 strictly < 3 µM for this compound? COc1ccc2ncc(F)c(C(O)C[C@H]3OC[C@H](NCc4ccc(C)cc4)CO3)c2c1 (mixture of isomers) Not met

Regarding `COc1ccc2ccc(F)c(C[C@H](O)[C@H]3OC[C@H](NCc4ccc5c(n4)NC(=O)CO5)CO3)c2n1` , kindly confirm whether its IC50 is beneath 3 µM. Met

---

Tested on: Staphylococcus aureus
measurement notes: Selectivity index, ratio of IC50 for inhibition of Staphylococcus aureus topoisomerase IV decatenation activity to IC50 for inhibition of Staphylococcus aureus DNA gyrase supercoiling activity
endpoint: Ratio IC50
Hey, just send me the number, nothing else.

>>> df
                            compound_smiles          target_entity    endpoint  measured_number
0  COc1ccc2ccc(F)c(C[C@H](O)[C@H]3OC[C@H](NCc4cc5c(cn4)OCCO5)CO3)c2n1  Staphylococcus aureus  Ratio IC50               67
1  COc1ccc2ccc(F)c(C[C@H](O)[C@H]3OC[C@H](NCc4cc5c(nn4)OCCS5)CO3)c2n1  Staphylococcus aureus  Ratio IC50               39

Shift focus to the following entry.
Short answer for `COc1ccc2ncc(F)c(C[C@H](O)[C@H]3OC[C@H](NCc4cnc5c(n4)OCCO5)CO3)c2n1` : Ratio IC50 was 52
